Every entry's value here was drawn from ChEMBL document CHEMBL2021771.

Target: Prostaglandin G/H synthase 2 (Homo sapiens, UniProt P35354)
Sequence (P35354 whole entry): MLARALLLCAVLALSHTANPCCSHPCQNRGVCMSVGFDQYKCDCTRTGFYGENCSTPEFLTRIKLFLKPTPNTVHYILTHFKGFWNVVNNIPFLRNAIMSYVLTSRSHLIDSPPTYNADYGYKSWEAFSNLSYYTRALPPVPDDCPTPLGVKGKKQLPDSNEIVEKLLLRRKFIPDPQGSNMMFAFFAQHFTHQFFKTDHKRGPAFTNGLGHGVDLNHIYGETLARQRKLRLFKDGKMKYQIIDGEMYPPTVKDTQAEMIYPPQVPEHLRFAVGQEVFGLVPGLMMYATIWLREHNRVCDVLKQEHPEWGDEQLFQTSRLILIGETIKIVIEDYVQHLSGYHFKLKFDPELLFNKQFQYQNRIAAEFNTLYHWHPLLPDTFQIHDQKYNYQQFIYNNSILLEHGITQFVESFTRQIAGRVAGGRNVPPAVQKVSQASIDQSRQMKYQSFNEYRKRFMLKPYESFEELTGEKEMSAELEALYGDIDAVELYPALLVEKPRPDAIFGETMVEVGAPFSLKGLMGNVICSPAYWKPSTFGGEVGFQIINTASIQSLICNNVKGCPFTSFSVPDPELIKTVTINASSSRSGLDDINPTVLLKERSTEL
Would you kindly list IC50 for each of these compounds?
Give just the number in µM; leave the unit off.

## Input Given Clc1ccc(-c2csc(Nc3ccc4c(c3)OCO4)n2)cc1 , state its recorded IC50.
## Output 0.84

## Input Can you share its IC50? I mean this compound: COc1cccc(-c2csc(Nc3ccc4c(c3)OCO4)n2)c1
## Output 0.92

## Input // query IC50 value for entry COc1ccc(Nc2nc(-c3ccc(C)c(C)c3)cs2)cc1
## Output 1.2

----------
Could you please report measured inhibition for the items listed next?
Target: Prostaglandin G/H synthase 2 (Homo sapiens) (UniProt P35354)
Sequence (whole entry): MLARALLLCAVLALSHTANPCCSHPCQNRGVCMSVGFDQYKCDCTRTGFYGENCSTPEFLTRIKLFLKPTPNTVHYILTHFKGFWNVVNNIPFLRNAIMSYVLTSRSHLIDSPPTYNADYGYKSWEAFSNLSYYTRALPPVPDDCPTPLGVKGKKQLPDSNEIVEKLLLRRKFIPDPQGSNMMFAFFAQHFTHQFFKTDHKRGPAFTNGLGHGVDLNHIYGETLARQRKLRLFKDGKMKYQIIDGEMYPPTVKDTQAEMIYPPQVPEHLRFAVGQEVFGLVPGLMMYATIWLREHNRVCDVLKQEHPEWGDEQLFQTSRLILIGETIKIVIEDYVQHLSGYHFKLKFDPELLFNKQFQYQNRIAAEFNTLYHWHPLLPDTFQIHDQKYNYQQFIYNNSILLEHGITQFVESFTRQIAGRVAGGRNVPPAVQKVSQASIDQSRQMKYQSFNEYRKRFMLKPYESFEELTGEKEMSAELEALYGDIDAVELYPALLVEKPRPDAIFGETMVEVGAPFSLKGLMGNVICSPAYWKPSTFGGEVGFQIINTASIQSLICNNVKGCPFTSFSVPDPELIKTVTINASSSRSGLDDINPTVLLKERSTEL
Conditions: at 5 µM

## Input May I ask what inhibition has been recorded for COc1cccc(-c2csc(Nc3ccc(Oc4ccccc4)cc3)n2)c1 ?
## Output 40.3%

## Input Name the reported inhibition value associated with the compound COc1cccc(Nc2nc(-c3ccc(Cl)cc3)cs2)c1
## Output 55.1%

## Input Please look up its inhibition: CC(=O)c1sc(Nc2ccc(Oc3ccccc3)cc2)nc1C
## Output 28.9%

## Input # lookup: inhibition of COc1ccc(Nc2nc(-c3ccc(Cl)cc3)c(C)s2)cc1
## Output 12%

## Input Give its inhibition value. Item: Clc1ccc(-c2csc(Nc3ccc4c(c3)OCO4)n2)cc1
## Output 68.8%

## Input Which inhibition is listed for c1ccc(-c2csc(Nc3ccc4c(c3)OCO4)n2)cc1 ?
## Output 114%

## Input Would you kindly share the measured inhibition for CCc1sc(Nc2ccc(OC)cc2)nc1C ?
## Output 49.3%

## Input Need inhibition, item COc1cccc(-c2csc(Nc3ccc4c(c3)OCO4)n2)c1
## Output 86%

## Input Find the recorded inhibition belonging to COc1ccccc1-c1csc(Nc2ccc(Oc3ccccc3)cc2)n1 and report it.
## Output 38.9%

## Input Look at this compound and give its reported inhibition. COc1ccc(-c2csc(Nc3ccc(C)cc3)n2)cc1
## Output 73.1%

## Input Query: inhibition; subject: COc1ccccc1-c1csc(Nc2ccc3c(c2)OCO3)n1
## Output 91.3%

## Input Look at this compound and give its reported inhibition. c1ccc(Oc2ccc(Nc3nc(-c4ccccc4)cs3)cc2)cc1
## Output 31%

## Input // inhibition lookup, key: COc1ccc(-c2csc(Nc3ccc4c(c3)OCO4)n2)cc1
## Output 94.4%

## Input Given the entry Fc1ccc(-c2csc(Nc3ccc(Oc4ccccc4)cc3)n2)cc1 , report its measured inhibition.
## Output 43.4%

## Input Please give the measured inhibition for this compound: CN(c1ccc(O)cc1)c1nc(-c2ccc(Cl)cc2)cs1
## Output 84.2%

## Input Could you share which inhibition value was measured for Clc1ccc(-c2csc(Nc3ccc(Oc4ccccc4)cc3)n2)cc1 ?
## Output 32.1%

## Input Which measured inhibition value corresponds to COc1ccc(Nc2nc(-c3ccc(C)c(C)c3)cs2)cc1 ?
## Output 69.3%

## Input Dear colleague, I am looking for the recorded inhibition of the following compound: COc1ccc(Nc2nc(-c3ccc(OC)cc3)cs2)cc1
## Output 66.8%

## Input Sample Clc1ccccc1-c1csc(Nc2ccc3c(c2)OCO3)n1 — what was its inhibition?
## Output 84.8%

## Input Form field: reported inhibition of COc1ccc(-c2csc(Nc3ccc(Oc4ccccc4)cc3)n2)cc1
## Output 40.8%

## Input Please report the recorded inhibition for CCc1sc(Nc2ccc(Oc3ccccc3)cc2)nc1C .
## Output 41.3%

----------
Experiment: Inhibition of IL-1beta-induced PGE2 production in human HCA-7 cells after 72 hrs by EIA
Type: functional, cell-based
Details: HCA-7, 72 h
Label 1 when EC50 is strictly below 200 nM; at or above that, label 0.

## Input Take the compound Cc1nc(Nc2ccc(Oc3ccccc3)cc2)sc1C(C)O (stereo not drawn) and say whether its EC50 is less than 200 nM.
## Output 1

## Input Is EC50 strictly under 200 nM for the entry COc1ccccc1-c1csc(Nc2ccc(Oc3ccccc3)cc2)n1 ?
## Output 1

## Input Here's an entry: COc1cccc(-c2csc(Nc3ccc(Oc4ccccc4)cc3)n2)c1 . Is its EC50 below 200 nM?
## Output 0

## Input Lab note: confirm whether the reported EC50 for this compound is below 200 nM, equality not counting. compound: c1ccc(Oc2ccc(Nc3nc(-c4ccccc4)cs3)cc2)cc1
## Output 0

## Input Problem: For the compound Clc1ccc(-c2csc(Nc3ccc(Oc4ccccc4)cc3)n2)cc1 , is EC50 under 200 nM?
## Output 0

## Input For Fc1ccc(-c2csc(Nc3ccc(Oc4ccccc4)cc3)n2)cc1 , is the recorded EC50 below the cut-off of 200 nM?
## Output 1

## Input I'd appreciate it if you could check whether CCc1sc(Nc2ccc(OC)cc2)nc1C has EC50 smaller than 200 nM.
## Output 0

## Input Please indicate whether the reported EC50 of COc1ccc(-c2csc(Nc3ccc(Oc4ccccc4)cc3)n2)cc1 is strictly below 200 nM.
## Output 0

----------
Test: Inhibition of IL-1beta-induced PGE2 production in human HCA-7 cells at 1 uM after 72 hrs by EIA
Format: functional
Conditions: HCA-7, 72 h
value-type: inhibition at 1 µM

## Input May I ask what inhibition at 1 µM has been recorded for COc1ccc(Nc2nc(C)c(C(C)=O)s2)cc1 ?
## Output 58.5%

## Input Endpoint output: inhibition at 1 µM of c1ccc(Oc2ccc(Nc3nc(-c4ccccc4)cs3)cc2)cc1 . Value?
## Output 79.6%

## Input Query: inhibition at 1 µM; subject: Cc1nc(Nc2ccc(Oc3ccccc3)cc2)sc1C(C)O (stereo not given)
## Output 80.4%

## Input What value of inhibition at 1 µM has been recorded for this entry: Clc1ccccc1-c1csc(Nc2ccc3c(c2)OCO3)n1
## Output 85.9%

## Input Dear colleague, I am looking for the recorded inhibition at 1 µM of the following molecule: Clc1ccc(-c2csc(Nc3ccc(Oc4ccccc4)cc3)n2)cc1
## Output 75.5%

## Input Data request, read-out inhibition at 1 µM, for N#Cc1ccc(Nc2nc(-c3ccc(Cl)cc3)cs2)cc1
## Output 23.1%

## Input # input molecule: COc1cccc(Nc2nc(-c3ccc(Cl)cc3)cs2)c1 ; wanted: its inhibition at 1 µM
## Output 78.3%

## Input Would you kindly share the measured inhibition at 1 µM for COc1ccc(-c2csc(Nc3ccc(Oc4ccccc4)cc3)n2)cc1 ?
## Output 80.4%

## Input If you can, please state the reported inhibition at 1 µM value of COc1ccccc1-c1csc(Nc2ccc(Oc3ccccc3)cc2)n1 .
## Output 82%

## Input GET /values?readout=inhibition at 1 µM&item= COc1ccc(Nc2nc(-c3ccc(C)cc3)cs2)cc1
## Output 37.3%
